Numbers sourced from PubChem BioAssay (EPA / NIEHS).

# Read-out: Monokine induced gamma interferon (MIG), CXCL9 (gene 4283)
# method: BSK_BE3C_MIG: BioMAP Diversity Plus: BE3C Assay for Monokine induced gamma interferon (MIG) Biomarker Activity (AID 2283035)
# experimental-setup: primary human bronchial epithelial cells; actives raise or lower the signal
The source made the active and inactive calls. How the source made its calls: active means hit-call score of the fitted dose curve at least 0.9, where 1 is the maximum; inactive means score below 0.9.
Outcomes: active, inactive

# molecular-string, category-label
records = [
    ("CCCOCC(=Nc1ccc(Cl)cc1C(F)(F)F)n1ccnc1", "active"),
    ("CCCOc1nn(C(=O)NS(=O)(=O)c2ccccc2C(=O)OC)c(=O)n1C", "inactive"),
    ("CN(C)NC(=O)CCC(=O)O", "inactive"),
    ("O=c1ccc(=O)[nH][nH]1", "inactive"),
    ("CSC1=N[C@@](C)(c2ccccc2)C(=O)N1Nc1ccccc1", "inactive"),
]

* * *

# Read-out: Cyclin D2 (CCND2), CCND2 (gene 894)
# method: LTEA_HepaRG_CCND2: Life Technologies and Expression Analysis (LTEA) Assay for Cyclin D2 (CCND2) using HepaRG (AID 2283449);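 further: CCND2 transcript measured by TaqMan qRT-PCR and normalised to three housekeeping genes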
# experimental-setup: mRNA level, 48 h; actives raise or lower the signal
Active and inactive are the calls of the source. Rule for the calls: active = hit-call score of the fitted dose curve at least 0.9, where 1 is the maximum; inactive = score below 0.9.
Classes used: yes (1) for active, no (0) for inactive

# compound, category-label
rows = [
    ("CCc1cccc(CC)c1N(COC)C(=O)CCl", "no (0)"),
    ("COc1cccc(C(=O)NN(C(=O)c2cc(C)cc(C)c2)C(C)(C)C)c1C", "no (0)"),
    ("CNC(=O)ON=C(SC)C(=O)N(C)C", "no (0)"),
    ("CCCOCC(=Nc1ccc(Cl)cc1C(F)(F)F)n1ccnc1", "no (0)"),
    ("C[Si](Cn1cncn1)(c1ccc(F)cc1)c1ccc(F)cc1", "no (0)"),
    ("CN(C)C(=O)Nc1cccc(C(F)(F)F)c1", "no (0)"),
    ("CCCSP(=O)(OCC)Oc1ccc(Br)cc1Cl (centres undefined)", "no (0)"),
    ("CCNc1nc(Cl)nc(NC(C)(C)C#N)n1", "no (0)"),
    ("C#CC(C)(C)NC(=O)c1cc(Cl)cc(Cl)c1", "no (0)"),
    ("CCCOc1nn(C(=O)NS(=O)(=O)c2ccccc2C(=O)OC)c(=O)n1C", "yes (1)"),
    ("COP(=O)(OC)OC(Br)C(Cl)(Cl)Br (centres undefined)", "no (0)"),
    ("CCOP(=S)(OCC)OC(Cl)C(Cl)(Cl)Cl (centres undefined)", "no (0)"),
    ("CCc1cnc(C2=NC(C)(C(C)C)C(=O)N2)c(C(=O)O)c1 (centres undefined)", "no (0)"),
    ("Cc1ccn2nc(S(=O)(=O)Nc3c(F)cccc3F)nc2n1", "no (0)"),
]

* * *

# Read-out: Vascular cell adhesion molecule 1 (VCAM1), VCAM1 (gene 7412)
# method: BSK_LPS_VCAM1: BioMAP Diversity Plus: LPS Assay for Vascular cell adhesion molecule 1 (VCAM1) Biomarker Activity (AID 2283086)
# experimental-setup: primary human HUVEC with PBMC; actives raise or lower the signal
Activity calls are given as the source filed them. The calls were made as follows: active = hit-call score of the fitted dose curve at least 0.9, where 1 is the maximum; inactive = score below 0.9.

# molecule, AC50
rows = [
    ("Cc1ccn2nc(S(=O)(=O)Nc3c(F)cccc3F)nc2n1", "inactive"),
    ("CCc1cnc(C2=NC(C)(C(C)C)C(=O)N2)c(C(=O)O)c1 (stereo not given)", "inactive"),
    ("CCCSP(=O)(OCC)SCCC", "inactive"),
    ("CCCCOC(=O)c1ccccc1C(=O)O", "inactive"),
    ("CN(C)NC(=O)CCC(=O)O", "inactive"),
    ("CCOP(=O)(SC(C)CC)N1CCSC1=O (stereo not given)", "inactive"),
    ("CCOP(=S)(OCC)Oc1ccc2c(C)c(Cl)c(=O)oc2c1", "inactive"),
    ("CSc1nnc(C(C)(C)C)c(=O)n1N", "inactive"),
    ("CNC(=O)Oc1cccc2c1OC(C)(C)O2", "20 µM (active)"),
    ("CC(C)N(C(=O)SCC(Cl)=C(Cl)Cl)C(C)C", "29.8 µM (active)"),
]
